Biological target: T1, mouse tissue factor pathway inhibitor (TFPI) (mouse, UniProt O54819 29-289, limits assumed)
T1 construct: bought; also called mTFPI; murine TFPI
T1 sequence (looked up): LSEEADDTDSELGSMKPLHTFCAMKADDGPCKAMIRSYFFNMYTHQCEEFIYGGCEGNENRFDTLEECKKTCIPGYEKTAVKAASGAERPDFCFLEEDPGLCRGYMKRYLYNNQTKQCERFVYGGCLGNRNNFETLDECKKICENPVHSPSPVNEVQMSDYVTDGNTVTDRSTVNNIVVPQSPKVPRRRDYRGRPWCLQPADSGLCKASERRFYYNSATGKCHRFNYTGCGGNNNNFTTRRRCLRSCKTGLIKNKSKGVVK
Experiment: competitive ELISA
As shown below, each of these binders has a reported variant/HC_K99L value.
Just the number please, in ratio, no unit attached.

// known answers, use as guide
2A8 HC S35D+S55R+S56G+K99L/LC Y48F+N51V+D91W (Fab, V domains shown) VH: QVQLVESGGGLVQPGGSLRLSCAASGFTFRSYGMDWVRQAPGKGLEWVSSIRGSRGSTYYADSVKGRFTISRDNSKNTLYLQMNSLRAEDTAVYYCARLYRYWFDYWGQGTLVTVSS VL: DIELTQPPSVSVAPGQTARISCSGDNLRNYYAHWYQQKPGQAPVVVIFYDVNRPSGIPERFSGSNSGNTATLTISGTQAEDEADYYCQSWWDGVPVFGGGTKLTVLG: 18.7
2A8 HC S35D+S50A+S55R+K99L/LC Y48F+N51V+D91W (Fab, V domains shown) VH: QVQLVESGGGLVQPGGSLRLSCAASGFTFRSYGMDWVRQAPGKGLEWVSAIRGSRSSTYYADSVKGRFTISRDNSKNTLYLQMNSLRAEDTAVYYCARLYRYWFDYWGQGTLVTVSS VL: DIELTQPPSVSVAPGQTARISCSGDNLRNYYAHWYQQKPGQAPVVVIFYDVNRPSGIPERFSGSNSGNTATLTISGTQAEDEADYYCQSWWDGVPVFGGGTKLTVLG: 12.6

Please look at the following binder next.
Read the entry 2A8 HC S35D+S50A+K99L/LC Y48F+D91L+V96W (Fab, V domains shown) VH: QVQLVESGGGLVQPGGSLRLSCAASGFTFRSYGMDWVRQAPGKGLEWVSAIRGSSSSTYYADSVKGRFTISRDNSKNTLYLQMNSLRAEDTAVYYCARLYRYWFDYWGQGTLVTVSS VL: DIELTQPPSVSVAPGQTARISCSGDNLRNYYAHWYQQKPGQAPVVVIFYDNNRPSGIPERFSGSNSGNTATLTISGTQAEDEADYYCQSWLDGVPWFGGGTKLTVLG and write its reported variant/HC_K99L.
4.6
